# Test system: KRas wild type
# protocol_text: Ras GTP Binding Domain Inhibition Assay (Ras Superfamily Assay)
# assay_context: 20 μM compound, with SOS
experimental_readout: KRas wild type + SOS: % inh.

# compound, experimental_readout, value_reported
measured = [
    ("Cc1c(-c2ccn(C)n2)cn2nc(-c3nccn3C)nc(Nc3ccn(C4CC4)n3)c12 [Compound 111]", "KRas wild type + SOS: % inh.", "A (A = 1-25% inhibition)"),
    ("CO[C@H]1C[C@H](Nc2nc(-c3nccn3C)nn3cc(-c4cccnc4)c(-c4ccccn4)c23)C1 [Compound 168]", "KRas wild type + SOS: % inh.", "A (A = 1-25% inhibition)"),
    ("COc1nccc(Nc2nc(-c3nccn3C)nn3cc(-c4ccn(C(C)C)n4)c(C)c23)n1 [Compound 86]", "KRas wild type + SOS: % inh.", "0 (0 = 0% inhibition)"),
    ("COc1cccc(-c2cn3nc(-c4nccn4C)nc(N[C@@H]4CC[C@@H](OC)C4)c3c2-c2ccccn2)c1F (racemic) [Compound 46]", "KRas wild type + SOS: % inh.", "A (A = 1-25% inhibition)"),
]

# input Which KRas wild type + SOS: % inh. value is on record for COc1cccc(-c2cn3nc(-c4nccn4C)nc(N[C@H]4C[C@@H](OC)C4)c3c2-c2ccccc2)c1Cl [Compound 31] ?
# output 0 (0 = 0% inhibition)

# input Report KRas wild type + SOS: % inh. for COc1cccc(-c2cn3nc(-c4nccn4C)nc(O)c3c2-c2ccccc2)c1Cl [Compound 28] please.
# output A (A = 1-25% inhibition)

# input Which KRas wild type + SOS: % inh. is reported for this compound? COc1cccc(Nc2nc(-c3ccccn3)nn3cc(-c4ccn(C(C)C)n4)c(C)c23)n1 [Compound 14]
# output A (A = 1-25% inhibition)

* * *

# Tested on: KRas wild type
# protocol_text: Ras GTP Binding Domain Inhibition Assay (Ras Superfamily Assay)
# assay_context: at 20 μM, with SOS
experimental_readout: KRas wild type + SOS: % inh.

# input Record COc1cccc(-c2cn3nc(-c4nccn4C)nc(N[C@H]4C[C@H](OC)C4)c3c2-c2ccccn2)c1C [Compound 274] : what is its KRas wild type + SOS: % inh. with KRas wild type?
# output 0 (0 = 0% inhibition)

* * *

# target_under_test: Rac-1 (Homo sapiens, UniProt P63000)
# Construct: made in house
# protocol_text: Ras GTP Binding Domain Inhibition Assay (Ras Superfamily Assay)
# assay_context: read-out: Rac-1: % inh.
inhibition at 20 µM values for the molecules below.

# molecule, target_under_test, inhibition at 20 µM
records = [
    ("COCCO[C@H]1C[C@H](Nc2nc(-c3nccn3C)nn3cc(-c4ccn(C(C)C)n4)c(C)c23)C1 [Compound 92]", "Rac-1 (Homo sapiens, UniProt P63000)", "1 to 25%"),
    ("Cc1c(-c2ccn(C)n2)cn2nc(-c3nccn3C)nc(Nc3ccc(N4CCCC4)cn3)c12 [Compound 228]", "Rac-1 (Homo sapiens, UniProt P63000)", "76 to 100%"),
    ("Cc1cc(Nc2nc(-c3nccn3C)nn3cc(-c4ccn(C)n4)c(C)c23)n[nH]1 [Compound 255]", "Rac-1 (Homo sapiens, UniProt P63000)", "76 to 100%"),
    ("Cc1c(-c2ccn(C)n2)cn2nc(-c3nccn3C)nc(Nc3cc(C(C)C)[nH]n3)c12 [Compound 268]", "Rac-1 (Homo sapiens, UniProt P63000)", "76 to 100%"),
    ("COCC1CCN(c2nc(-c3nccn3C)nn3cc(-c4ccn(C(C)C)n4)c(-c4ccccc4)c23)C1.Cl (racemic) [Compound 19, hydrochloride salt]", "Rac-1 (Homo sapiens, UniProt P63000)", "0%"),
]

# input Bench note: what inhibition at 20 µM did Cc1c(-c2ccn(C)n2)cn2nc(-c3nccn3C)nc(Nc3ccc(N(C)C)cn3)c12 [Compound 227] show?
# output 76 to 100%

# input Fill blank: measured inhibition at 20 µM of the molecule Cc1c(-c2ccn(C)n2)cn2nc(-c3nccn3C)nc(Nc3cc(-n4ccnc4)ccn3)c12 [Compound 245] is ____.
# output 50 to 75%

# input Fill in the blank: the reported inhibition at 20 µM of CO[C@@H]1C[C@H]1Nc1nc(-c2nccn2C)nn2cc(-c3cccnc3)c(-c3ccccc3)c12 (racemic) [Compound 190] is ____.
# output 26 to 49%

# input Need inhibition at 20 µM, item Cc1c(-c2ccn(C)n2)cn2nc(-c3nccn3C)nc(Nc3nnco3)c12.Cl [Compound 119, hydrochloride salt]
# output 26 to 49%

# input Query: inhibition at 20 µM; subject: Cc1c(-c2ccn(C3CC3)n2)cn2nc(-c3nccn3C)nc(Nc3ccccn3)c12 [Compound 143]
# output 76 to 100%

* * *

# Tested on: KRas wild type
# protocol_text: Ras GTP Binding Domain Inhibition Assay (Ras Superfamily Assay)
# assay_context: 20 μM compound, with SOS
experimental_readout: KRas wild type + SOS: % inh.

# input What does the data say about its KRas wild type + SOS: % inh.? Entry: "Cc1c(-c2ccn(C(C)C)n2)cn2nc(-c3nccn3C)nc(Nc3cc(C4CC4)no3)c12"
# output 0 (0 = 0% inhibition)

* * *

# Test system: KRas G12D mutant
# protocol_text: Ras GTP Binding Domain Inhibition Assay (Ras Superfamily Assay)
# assay_context: 20 μM compound, with SOS
experimental_readout: KRas G12D mutant + SOS: % inh.

Take a look at these entries with their results.
# molecule, target_under_test, experimental_readout, value_reported
measured = [
    ("COc1cc(Nc2nc(-c3nccn3C)nn3cc(-c4ccn(C(C)C)n4)c(C)c23)ccn1", "KRas G12D mutant", "KRas G12D mutant + SOS: % inh.", "A (A = 1-25% inhibition)"),
    ("Cc1c(-c2ccn(C(C)C)n2)cn2nc(-c3nccn3C)nc(Nc3ncc(C4CC4)o3)c12", "KRas G12D mutant", "KRas G12D mutant + SOS: % inh.", "A (A = 1-25% inhibition)"),
    ("Cc1c(-c2ccn(C(C)C)n2)cn2nc(-c3nccn3C)nc(Nc3ncco3)c12", "KRas G12D mutant", "KRas G12D mutant + SOS: % inh.", "A (A = 1-25% inhibition)"),
    ("COCCO[C@H]1C[C@H](Nc2nc(-c3nccn3C)nn3cc(-c4ccn(C)n4)c(C)c23)C1", "KRas G12D mutant", "KRas G12D mutant + SOS: % inh.", "A (A = 1-25% inhibition)"),
    ("Cc1c(-c2ccn(C)n2)cn2nc(-c3nccn3C)nc(Nc3nccn3C)c12", "KRas G12D mutant", "KRas G12D mutant + SOS: % inh.", "A (A = 1-25% inhibition)"),
    ("COc1cccc(-c2cn3nc(-c4nccn4C)nc(N[C@H]4C[C@H](OC)C4)c3c2-c2ccccn2)c1F", "KRas G12D mutant", "KRas G12D mutant + SOS: % inh.", "A (A = 1-25% inhibition)"),
]

Now look at this one.
# input Kindly state the measured KRas G12D mutant + SOS: % inh. obtained for COc1cccc(-c2cn3nc(-c4nccn4C)nc(N[C@@H]4CC[C@H](OC)C4)c3c2-c2ccccc2)c1Cl (racemic) with KRas G12D mutant.
# output 0 (0 = 0% inhibition)

* * *

# target_under_test: Rheb (Homo sapiens)
# Construct: made in house
# Sequence (Q15382 whole entry): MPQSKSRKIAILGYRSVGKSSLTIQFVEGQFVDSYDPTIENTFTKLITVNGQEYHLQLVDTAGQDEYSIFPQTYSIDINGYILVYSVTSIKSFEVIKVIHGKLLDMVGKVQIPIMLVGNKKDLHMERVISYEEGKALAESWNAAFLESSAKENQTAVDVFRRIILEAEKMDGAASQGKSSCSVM
# protocol_text: Rheb GTP Binding Domain Inhibition Assay
# assay_context: read-out: Rheb: % inh.
experimental_readout: inhibition at 20 µM

// known answers, use as guide
# compound, target_under_test, value_reported
records = [
    ("Cc1c(-c2ccn(C(C)C)n2)cn2nc(-c3nccn3C)nc(Nc3nccn3C)c12 [Compound 93]", "Rheb (Homo sapiens)", "76 to 100%"),
    ("Cc1c(-c2ccn(C(C)C)n2)cn2nc(-c3nccn3C)nc(Nc3cnccn3)c12 [Compound 62]", "Rheb (Homo sapiens)", "0%"),
    ("COc1cccc(-c2cn3nc(-c4nccn4C)nc(N[C@@H]4CC[C@@H](OC)C4)c3c2-c2ccccn2)c1F (racemic) [Compound 46]", "Rheb (Homo sapiens)", "50 to 75%"),
    ("COc1cc(Nc2nc(-c3nccn3C)nn3cc(-c4ccn(C)n4)c(C)c23)ncn1 [Compound 63]", "Rheb (Homo sapiens)", "50 to 75%"),
]

Continue with the compound presented below.
# input What does the record list as inhibition at 20 µM for COc1ccnc(Nc2nc(-c3nccn3C)nn3cc(-c4ccn(C(F)F)n4)c(C)c23)n1 [Compound 95] ?
# output 50 to 75%

* * *

# System: Erk1/2 phosphorylation
# protocol_text: Erk1/2 Phosphorylation Assay (western blot), Panc-1
# Type: cell-based, human
# assay_context: at 10 μM, * = activation
experimental_readout: % inh of Erk1/2 phosphorylation in Panc-1

# compound, value_reported
records = [
    ("Cc1c(-c2ccn(C)n2)cn2nc(-c3nccn3C)nc(Nc3cc(C(F)F)[nH]n3)c12", "A* (1-25% activation)"),
    ("COc1ccnc(Nc2nc(-c3nccn3C)nn3cc(-c4ccn(C)n4)c(C4CC4)c23)c1", "D* (85-100% activation)"),
    ("COCc1csc(Nc2nc(-c3nccn3C)nn3cc(-c4ccn(C(C)C)n4)c(C)c23)n1", "D* (85-100% activation)"),
    ("COc1cnc(Nc2nc(-c3nccn3C)nn3cc(-c4ccn(C)n4)c(C)c23)cc1C", "D* (85-100% activation)"),
    ("COCC1CCN(c2nc(-c3ccccn3)nn3cc(-c4ccn(C(C)C)n4)c(C)c23)C1 (racemic)", "0 (0% inhibition)"),
]

// switching to the query compound
# input // query % inh of Erk1/2 phosphorylation in Panc-1 value for entry "Cc1c(-c2ccn(C)n2)cn2nc(-c3nccn3C)nc(Nc3ccc(-c4ccccn4)cn3)c12"
# output D* (85-100% activation)
